- Test system: TK6 human lymphoblastoid cells
- Format: cell-based
- assay_setup: 24 h dilution series, determined by cell density and the Alamar Blue assay, read-out: approximated EC50 (cytotoxic concentration for 50% cell death; equicytotoxic concentration)
- Procedure: The human lymphoblastoid cell line TK6 (ATCC, Manassas, Va.) was cultured in RPMI 1640 medium (with Glutamax and 10% FHS) at a cell density of 0.2×10^5 to 10×10^5 cells/ml. […] Cytotoxic concentrations were determined either by measuring cell density on a Sysmex Cell Counter (Sysmex America, Inc., Mundelein, Ill.) or by metabolic cell activity using the Alamar Blue (Serotec Inc., Raleigh, N.C.) cytotoxicity assay. […] Cell density by Sysmex was measured after the 24 h treatment. […]
readout: pEC50
Lab note — pEC50 values are minus log10 of concentrations in M.

For reference, reported pEC50 for N.N.[Cl][Pt][Cl] [cis-Platinum, cis-diammineplatinum(II) dichloride] stands at 5.89

Source: patent US20080096770A1
